assay: chemical genetic growth profiling, strain panel (AID 1159580);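 further: tested at 20 µM; growth read once vehicle control cultures reached saturation at 30 °C; 1 = growth at the plate median or of vehicle wells; lower values mean less growth of the strain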; conditions: S. cerevisiae deletion strains, growth OD, locus YIR030C, strain dcg1, stronger effect = lower value
The whole screen tested about 5,500 compounds, of which about 2,000 (36%) were called active. Not shown: some 18% with an inconclusive outcome. This is one part of the list.
Kindly supply the reported normalized growth values for the records listed here.
Give bare numbers.

Some entries whose results are on file:
COMPOUND | normalized growth
CC1CCC(NC(=O)N(CCCl)N=O)CC1 (stereo not drawn) | 0.995
O=NN(CCCl)C(=O)NCCCl | 0.991
Cc1onc(-c2ccccc2)c1-c1ccc(S(N)(=O)=O)cc1 | 1
C[C@]12CCC3C(CC[C@H]4C[C@@H](O)CC[C@]34C)C1CC[C@@H]2O (stereo partly drawn) | 1.03

I would be grateful if you could provide normalized growth for each of the following entries.
1. CC(C)/C(O)=C1/C(=O)O[C@@H](c2ccoc2)[C@]2(C)C(O)[C@@H](O)[C@@]34OC5(C)OC67CC(C)(C(O)[C@]6(O)[C@@H](O)[C@]3(O5)C12)[C@H](CC(=O)O)[C@]74C (stereo partly drawn)
2. CC(=O)O[C@@H]1CC2C(C)(C)[C@H](O)CC[C@]2(C)C2CC[C@@]3(C)[C@H](c4ccoc4)OC(=O)C4OC43[C@@]21C (stereo partly drawn)
3. CC1(C)C(=O)[C@@H]2O[C@@H]2[C@@]2(C)C1C[C@@H](O)[C@]1(C)C2CC[C@@]2(C)[C@H](c3ccoc3)OC(=O)C3OC321 (stereo partly drawn)

## Result
[1.01, 0.988, 0.994]

## Task Return reported normalized growth; argument: CC(=O)O[C@H]1C[C@@H](OC(C)=O)C(C)(C)C2C[C@@H](OC(C)=O)[C@]3(C)C(CC[C@@]4(C)[C@H](c5ccoc5)OC(=O)[C@H]5O[C@]543)[C@]21C (stereo partly drawn)
## Result 1
